Values from PubChem BioAssay (NCI)

Test system: OVCAR-4 ovarian
Assay: NCI tumour cell line growth inhibition, 48 h
endpoint_name: TGI

Below are worked cases with known answers.
compound	reported
N#Cc1c(NN)nc(NN)c(C#N)c1-c1ccccc1	> 100 µM
COc1c(OC)c(OC)c2c(c1OC)c(=O)c1ccccc1n2C	> 100 µM
CCC(CO)Nc1nc(NCc2ccccc2O)c2ncn(C(C)C)c2n1 (centres undefined)	33.6 µM

Give the value of TGI reported for the following: CC(=O)OC1COC(Nc2ccc(C(C)=O)cc2)C(OC(C)=O)C1OC(C)=O (centres undefined)
> 100 µM

Determine its reported TGI: O=S1CCS(=O)CCS(=O)CC1 (centres undefined)
> 100 µM

Give the reported TGI for this compound. Cc1cc2nc(CCC(=O)O)c(=O)[nH]c2cc1C
> 100 µM

Entry C=CCN1C(=O)/C(=C/c2ccc(OC)cc2)NC1=S needs its TGI filled in; supply it.
> 100 µM

State, in one line, measured TGI of Nc1nc(Cl)c2ncn(Cc3ccc(CCl)cc3)c2n1
30.1 µM

Please report the measured TGI for COc1cc(C)c(/C=C/C(=O)N2C(=O)OC[C@@H]2c2ccccc2)c(C)c1
> 100 µM
